Give Ki for every item shown.
Target entity: Neuronal acetylcholine receptor; alpha3/beta4 (Homo sapiens, UniProt P30926+P32297)
Sequence (P30926 whole entry): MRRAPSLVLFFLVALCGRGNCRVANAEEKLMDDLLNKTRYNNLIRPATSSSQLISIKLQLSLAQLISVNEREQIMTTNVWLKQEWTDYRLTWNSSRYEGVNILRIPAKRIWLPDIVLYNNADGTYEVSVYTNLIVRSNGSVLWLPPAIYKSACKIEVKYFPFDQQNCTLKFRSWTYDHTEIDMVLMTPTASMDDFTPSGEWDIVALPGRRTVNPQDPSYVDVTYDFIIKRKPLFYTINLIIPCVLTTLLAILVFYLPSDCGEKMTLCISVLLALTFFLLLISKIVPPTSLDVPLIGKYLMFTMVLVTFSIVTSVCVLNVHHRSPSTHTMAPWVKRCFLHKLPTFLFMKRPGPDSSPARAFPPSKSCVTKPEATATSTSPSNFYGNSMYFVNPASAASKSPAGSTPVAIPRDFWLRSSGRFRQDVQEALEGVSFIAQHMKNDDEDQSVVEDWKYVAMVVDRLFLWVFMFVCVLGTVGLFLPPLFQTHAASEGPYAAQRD
Sequence (P32297 whole entry): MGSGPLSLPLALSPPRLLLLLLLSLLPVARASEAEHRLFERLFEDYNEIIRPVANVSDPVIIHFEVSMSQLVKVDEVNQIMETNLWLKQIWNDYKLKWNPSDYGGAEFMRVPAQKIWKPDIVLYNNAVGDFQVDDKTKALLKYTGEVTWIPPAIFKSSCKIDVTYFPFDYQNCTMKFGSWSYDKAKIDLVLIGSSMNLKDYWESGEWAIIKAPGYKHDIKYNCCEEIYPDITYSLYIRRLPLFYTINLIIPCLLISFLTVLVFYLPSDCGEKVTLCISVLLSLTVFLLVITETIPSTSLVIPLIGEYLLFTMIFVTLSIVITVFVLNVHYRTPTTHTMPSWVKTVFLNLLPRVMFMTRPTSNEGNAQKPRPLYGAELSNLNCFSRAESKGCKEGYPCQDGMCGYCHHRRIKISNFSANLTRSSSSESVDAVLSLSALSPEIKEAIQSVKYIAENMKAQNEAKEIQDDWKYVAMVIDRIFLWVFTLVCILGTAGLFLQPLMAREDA
Measurement description: Displacement of [3H]-epibatidine from human alpha3beta4 transfected in HEK293 cell membranes preincubated for 5 mins followed by [3H]-epibatidine addition and measured after overnight incubation by liquid scintillation beta counter analysis
Numbers only, in µM.

// worked examples, Ki included
# Structure string, Observation type, Result number
records = [
    ("CN1CCC[C@H]1[C@@H]1COc2ccc([N+](=O)[O-])cc2O1", "Ki", 4.5),
    ("CN1CCC[C@H]1[C@@H]1COc2cc(N)ccc2O1", "Ki", 3.5),
    ("CN1CCC[C@H]1[C@H]1COc2c(cccc2[N+](=O)[O-])O1", "Ki", 6.7),
]

I would be grateful if you could provide Ki for each of the following entries.
1. CN1CCC[C@H]1[C@H]1COc2ccc([N+](=O)[O-])cc2O1
2. CN1CCC[C@H]1[C@H]1COc2cc(N)ccc2O1
3. CN1CCC[C@H]1[C@@H]1COc2cc(O)ccc2O1
4. CN1CCC[C@H]1[C@H]1COc2cc(-c3ccccc3)ccc2O1
5. CN1CCC[C@H]1[C@H]1COc2c(cccc2-c2ccccc2)O1
6. CN1CCC[C@H]1[C@@H]1COc2cc(-c3ccccc3)ccc2O1
7. CN(C)c1ccc2c(c1)O[C@@H]([C@@H]1CCCN1C)CO2

*A*
[2.1, 8.6, 1.9, 5.8, 5.3, 5.4, 25]

*Q* Quick one: Ki of `CN1CCC[C@H]1[C@@H]1COc2c(cccc2-c2ccccc2)O1` ?
*A* 2.7
